- System: HeLa
- ASSAY NAME: Growth inhibition of human HeLa cells at 10 uM after 72 hrs by MTT assay relative to control
- Format: functional
- EXPERIMENTAL SETUP: read-out: GI
Listed here: items and their measured inhibition of growth at 10 µM.
MEASUREMENT NAME: inhibition of growth at 10 µM (%)

chemical_string=CCC[C@H]1[C@@H]2CCc3cc(OCc4cn(C[C@H]5O[C@@H](OC)[C@H](OC(=O)c6ccccc6)[C@@H]5OC(=O)c5ccccc5)nn4)ccc3[C@H]2CC[C@]1(C)/C=N/O inequality_symbol== observed_measurement=24.3
chemical_string=CCC[C@H]1[C@@H]2CCc3cc(OCc4cn(C[C@H]5O[C@H](OC)[C@H](OC(=O)c6ccccc6)[C@@H](OC(=O)c6ccccc6)[C@@H]5OC(=O)c5ccccc5)nn4)ccc3[C@H]2CC[C@]1(C)CO inequality_symbol=< observed_measurement=20
chemical_string=CCC[C@H]1[C@@H]2CCc3cc(OCc4cn(C[C@H]5O[C@@H](OC)[C@H](OC(=O)c6ccccc6)[C@@H]5OC(=O)c5ccccc5)nn4)ccc3[C@H]2CC[C@]1(C)CO inequality_symbol=< observed_measurement=20
chemical_string=CCC[C@H]1[C@@H]2CCc3cc(OCc4cn(C[C@H]5O[C@H](OC)[C@@H](OC(=O)c6ccccc6)[C@@H](OC(=O)c6ccccc6)[C@@H]5OC(=O)c5ccccc5)nn4)ccc3[C@H]2CC[C@]1(C)CO inequality_symbol=< observed_measurement=20
chemical_string=CCC[C@H]1[C@@H]2CCc3cc(OCc4cn([C@H]5O[C@H](COC(C)=O)[C@@H](OC(C)=O)[C@H](OC(C)=O)[C@@H]5OC(C)=O)nn4)ccc3[C@H]2CC[C@]1(C)CO inequality_symbol== observed_measurement=51.9
chemical_string=CCC[C@H]1[C@@H]2CCc3cc(OCc4cn([C@@H]5O[C@H](COC(C)=O)[C@@H](OC(C)=O)[C@H](OC(C)=O)[C@H]5OC(C)=O)nn4)ccc3[C@H]2CC[C@]1(C)CO inequality_symbol== observed_measurement=34.5
chemical_string=CCC[C@H]1[C@@H]2CCc3cc(OCc4cn([C@H]5O[C@H](COC(C)=O)[C@@H](OC(C)=O)[C@H](OC(C)=O)[C@@H]5OC(C)=O)nn4)ccc3[C@H]2CC[C@]1(C)/C=N/O inequality_symbol== observed_measurement=52.4
chemical_string=CCC[C@H]1[C@@H]2CCc3cc(OCc4cn([C@@H]5O[C@H](COC(C)=O)[C@H](OC(C)=O)[C@H](OC(C)=O)[C@H]5OC(C)=O)nn4)ccc3[C@H]2CC[C@]1(C)CO inequality_symbol== observed_measurement=23.9
chemical_string=CCC[C@H]1[C@@H]2CCc3cc(OCc4cn([C@@H]5O[C@H](COC(C)=O)[C@H](OC(C)=O)[C@H](OC(C)=O)[C@H]5OC(C)=O)nn4)ccc3[C@H]2CC[C@]1(C)/C=N/O inequality_symbol== observed_measurement=31.5
chemical_string=CCC[C@H]1[C@@H]2CCc3cc(OCc4cn(C[C@H]5O[C@H](OC)[C@H](OC(=O)c6ccccc6)[C@@H](OC(=O)c6ccccc6)[C@@H]5OC(=O)c5ccccc5)nn4)ccc3[C@H]2CC[C@]1(C)/C=N/O inequality_symbol=< observed_measurement=20

----------
Listed here: items and their measured IC50.
- System: HeLa
- ASSAY NAME: Antiproliferative activity against human HeLa cells after 72 hrs by MTT assay
- Format: functional, cell-based
MEASUREMENT NAME: IC50 (µM)

chemical_string=CCC[C@H]1[C@@H]2CCc3cc(OCc4cn([C@@H]5O[C@H](COC(C)=O)[C@H](OC(C)=O)[C@H](OC(C)=O)[C@H]5OC(C)=O)nn4)ccc3[C@H]2CC[C@]1(C)/C=N/O readout_unit=µM inequality_symbol== observed_measurement=20.5
chemical_string=CCC[C@H]1[C@@H]2CCc3cc(OCc4cn([C@@H]5O[C@H](COC(C)=O)[C@@H](OC(C)=O)[C@H](OC(C)=O)[C@H]5OC(C)=O)nn4)ccc3[C@H]2CC[C@]1(C)/C=N/O readout_unit=µM inequality_symbol=> observed_measurement=30
chemical_string=CCC[C@H]1[C@@H]2CCc3cc(OCc4cn([C@@H]5O[C@H](CO)[C@@H](O)[C@H](O)[C@H]5O)nn4)ccc3[C@H]2CC[C@]1(C)/C=N/O readout_unit=µM inequality_symbol=> observed_measurement=30
chemical_string=CCC[C@H]1[C@@H]2CCc3cc(OCc4cn([C@H]5O[C@H](COC(C)=O)[C@@H](OC(C)=O)[C@H](OC(C)=O)[C@@H]5OC(C)=O)nn4)ccc3[C@H]2CC[C@]1(C)/C=N/O readout_unit=µM inequality_symbol== observed_measurement=8.9
